Hey, just so you know, these numbers are from patent US12385839B2.

Biological target: human serum albumin (HSA) (Homo sapiens)
Assay: Fluorescence emission spectrum (quenching) of HSA with carbamate pesticides
Assay type: binding
Details: Ka (binding constant), 310 K, pH 7.4
pKd: −log10 of the molar value.
The label depends only on pKd: Satisfied if it is at least 3, Not satisfied if it is smaller.

>>> class_assignment("CNC(=O)Oc1cc(C)cc(C(C)C)c1 [Promecarb, promecarb]")
"Satisfied"
>>> class_assignment("CNC(=O)ON=C(CSC)C(C)(C)C [Thiofanox, thiofanox]")
"Satisfied"
>>> class_assignment("CNC(=O)Oc1cccc2c1OC(C)(C)C2 [Carbofuran, carbofuran]")
"Satisfied"
>>> class_assignment("CNC(=O)Oc1ccccc1OC(C)C [Propoxur, propoxur]")
"Satisfied"

Consider the additional compound presented here.
Qu. Could you tell me if the measured pKd of CNC(=O)Oc1cccc(C)c1 [Metolcarb, metolcarb] reaches 3 or more?
Ans. Not satisfied

* * *

Give Ksv for every item shown.
Target: human serum albumin (HSA) (Homo sapiens, UniProt P02768)
Sequence (P02768 25-609): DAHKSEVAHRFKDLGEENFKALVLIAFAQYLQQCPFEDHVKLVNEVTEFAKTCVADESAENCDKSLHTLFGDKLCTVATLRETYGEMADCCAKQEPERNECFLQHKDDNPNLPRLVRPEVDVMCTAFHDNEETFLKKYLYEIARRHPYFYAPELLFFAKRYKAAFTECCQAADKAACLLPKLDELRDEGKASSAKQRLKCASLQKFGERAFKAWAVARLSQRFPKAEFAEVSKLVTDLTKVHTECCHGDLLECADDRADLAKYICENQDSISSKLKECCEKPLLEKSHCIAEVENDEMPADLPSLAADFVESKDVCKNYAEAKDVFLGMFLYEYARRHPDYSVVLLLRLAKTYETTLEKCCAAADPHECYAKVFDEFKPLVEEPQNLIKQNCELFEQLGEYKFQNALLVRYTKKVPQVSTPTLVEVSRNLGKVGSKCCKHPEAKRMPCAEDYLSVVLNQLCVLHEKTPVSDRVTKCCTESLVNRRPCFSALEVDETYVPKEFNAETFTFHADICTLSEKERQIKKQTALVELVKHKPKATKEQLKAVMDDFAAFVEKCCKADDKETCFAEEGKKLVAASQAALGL
Experiment: Fluorescence emission spectrum (quenching) of HSA with carbamate pesticides
Format: binding
Settings: 310 K, pH 7.4

Below, 4 molecules whose answers are already recorded.
>>> observed_measurement("CNC(=O)O/N=C(\\C)C(C)S(C)(=O)=O (centres unmarked) [Butoxycarboxim, butoxycarboxim]")
"6.264 ± 0.074 10^4 M^−1"
>>> observed_measurement("CNC(=O)Oc1ccccc1C(C)C [Isoprocarb, isoprocarb]")
"3.015 ± 0.043 10^4 M^−1"
>>> observed_measurement("CNC(=O)ON=C(CSC)C(C)(C)C [Thiofanox, thiofanox]")
"5.876 ± 0.198 10^4 M^−1"
>>> observed_measurement("CNC(=O)Oc1cc(C)cc(C(C)C)c1 [Promecarb, promecarb]")
"5.817 ± 0.219 10^4 M^−1"

// below: Ksv requested for another molecule
Qu. Please list Ksv recorded for the molecule CNC(=O)Oc1cccc2c1OC(C)(C)C2 [Carbofuran, carbofuran]
Ans. 8.770 ± 0.088 10^4 M^−1

* * *

Biological target: human serum albumin (HSA) (Homo sapiens)
Experiment: Fluorescence emission spectrum (quenching) of HSA with carbamate pesticides
Type: binding
Details: 303 K, pH 7.4
measured.metric: Ksv

>>> observed_measurement("CNC(=O)O/N=C(\\C[S+](C)[O-])C(C)(C)C (stereo not drawn) [Thiofanox-sulfoxide]")
"4.237 ± 0.067 10^4 M^−1"

Hey, quick one: what's Ksv for each of these?
1. CNC(=O)O/N=C(\C)C(C)S(C)(=O)=O (stereo not drawn)
2. CNC(=O)Oc1cc(C)cc(C)c1 [XMC, 3,5-xylyl methylcarbamate]
3. CNC(=O)Oc1cc(C)cc(C(C)C)c1
4. CNC(=O)ON=C(CSC)C(C)(C)C
5. CNC(=O)O/N=C(\SC)C(=O)N(C)C

Ans.
4.798 ± 0.112 10^4 M^−1
4.362 ± 0.151 10^4 M^−1
3.705 ± 0.060 10^4 M^−1
4.728 ± 0.064 10^4 M^−1
5.735 ± 0.073 10^4 M^−1

Hey, quick one: what's Ksv for each of these?
1. CNC(=O)Oc1cccc(C)c1
2. CNC(=O)Oc1ccc(N(C)C)c(C)c1
3. CNC(=O)ON=C(C)SC

Ans.
1: 3.415 ± 0.159 10^4 M^−1; 2: 3.409 ± 0.059 10^4 M^−1; 3: 4.025 ± 0.136 10^4 M^−1
